Where these numbers come from: the supplement of paper PMC7125110

B1: glmS ribozyme (parent)
chain: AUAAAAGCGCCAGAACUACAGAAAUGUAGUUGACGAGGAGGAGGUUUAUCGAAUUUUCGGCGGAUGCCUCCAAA

Variants of: B1
Experimental protocol: self-cleavage kobs at 40 uM GlcN6P; higher = faster cleavage; RNA array
Condition summary: with glucosamine-6-phosphate
This sample holds only a part of the variants without activity.
Catalogue of self-cleavage kobs at 40 uM GlcN6P values
Write it as a number; the unit s⁻¹ goes unstated.

{"Mutations": "C11A G29U C50G", "Measure unit": "s⁻¹", "self-cleavage kobs at 40 uM GlcN6P": "6.35e-05"}
{"Mutations": "A53G G66U C67A", "Measure unit": "s⁻¹", "self-cleavage kobs at 40 uM GlcN6P": "7.95e-05"}
{"Mutations": "A53U U55C", "Measure unit": "s⁻¹", "self-cleavage kobs at 40 uM GlcN6P": 0.000338}
{"Mutations": "A14U G40A", "Measure unit": "s⁻¹", "self-cleavage kobs at 40 uM GlcN6P": "4.43e-05"}

Problem: Looking for the measured self-cleavage kobs at 40 uM GlcN6P of A15G G29U , can you help?
Solution: 6.06e-05

Problem: Looking for the measured self-cleavage kobs at 40 uM GlcN6P of A12C U55A , can you help?
Solution: 0.000742

Problem: Looking for the measured self-cleavage kobs at 40 uM GlcN6P of U55G C70G , can you help?
Solution: 2.75e-05
